Where do the numbers come from? From paper PMC6009965.

Kindly supply the reported inhibition at 200 µM values for the records listed here.
- Target System: α-glucosidase from Saccharomyces cerevisiae (Saccharomyces cerevisiae, UniProt P53341)
- Construct: purchased Sigma-Aldrich Co. LLC (St. Louis, MO)
- Sequence (P53341 whole entry): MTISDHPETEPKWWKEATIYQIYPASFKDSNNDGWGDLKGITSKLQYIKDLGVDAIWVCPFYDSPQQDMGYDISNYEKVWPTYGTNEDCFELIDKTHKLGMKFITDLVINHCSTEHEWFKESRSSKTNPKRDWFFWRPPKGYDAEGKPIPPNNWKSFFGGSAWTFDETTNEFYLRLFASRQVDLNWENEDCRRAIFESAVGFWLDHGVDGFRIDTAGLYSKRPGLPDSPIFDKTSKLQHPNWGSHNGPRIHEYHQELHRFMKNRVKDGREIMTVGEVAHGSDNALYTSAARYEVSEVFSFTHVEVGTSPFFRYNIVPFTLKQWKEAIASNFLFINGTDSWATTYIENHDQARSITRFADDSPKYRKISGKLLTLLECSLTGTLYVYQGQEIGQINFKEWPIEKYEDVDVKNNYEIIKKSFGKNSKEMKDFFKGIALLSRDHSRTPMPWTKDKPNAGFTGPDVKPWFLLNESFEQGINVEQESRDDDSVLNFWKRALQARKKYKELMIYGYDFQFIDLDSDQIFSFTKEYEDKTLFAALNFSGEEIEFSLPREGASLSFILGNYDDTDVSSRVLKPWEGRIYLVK
- Assay Info: biochemical
- Measurement Setup: read-out: Inhibitory activity at the highest tested concentration
- Protocol: Compounds A1, A2, A3, A4, A5, A6, B1, B2, B3, B4, C1, C2, C3, C4, C5, C6, C8, C9, D1 (chrysin), D2 (galangin) and D5 were obtained from Indofine Chemical Company, Inc. (Hillsborough, NJ). […] The α-glucosidase activity was measured using a method of Tadera et al.[31] slightly modified. […] The enzymatic reaction was monitored spectrophotometrically, in a microplate reader (Synergy HT, BIO-TEK), by measuring the absorbance at 405 nm. The obtained values correspond to the slope measured between 5 and 20 min. […]
Give the value in % but do not write % after it.

inhibition at 200 µM lookup needed for COc1ccc(-c2oc3c(OCc4ccccc4)c(OCc4ccccc4)ccc3c(=O)c2O)cc1OC [Compound C13] , thanks.
32

inhibition at 200 µM lookup needed for O=C1C[C@@H](c2ccc(O)cc2)Oc2cc(O)cc(O)c21 [Compound E1, Naringenin] , thanks.
45

inhibition at 200 µM lookup needed for O=C1C[C@@H](c2ccc(O)c(O)c2)Oc2cc(O)cc(O)c21 [Compound E2, Eriodictyol] , thanks.
35

inhibition at 200 µM lookup needed for COc1ccc(-c2oc3c(O)c(O)ccc3c(=O)c2O)cc1OC [Compound C11] , thanks.
31

inhibition at 200 µM lookup needed for O=c1c(O)c(-c2ccccc2)oc2cc(O)cc(O)c12 [Compound D2, Galangin] , thanks.
21

inhibition at 200 µM lookup needed for O=c1cc(-c2cccc(O)c2)oc2cccc(O)c12 [Compound B2] , thanks.
31

inhibition at 200 µM lookup needed for O=c1cc(-c2ccc(O)c(O)c2)oc2ccccc12 [Compound A4] , thanks.
32
